All values here come from patent US20250074901A1.

# assayedTarget: Kv7.2 (Homo sapiens)
# method: Activation of Kv7.2 (in vitro assay, concentration response curve)
# conditionNotes: activation of Kv7.2
Consider the following molecules; for each one, report its EC50.
Just the number in nM, nothing appended.

Write EC50 of CC1(C)C[C@H](NC(=O)NCc2ccnc(-n3cnc(C(F)(F)F)c3)c2)[C@@H]1O (racemic) ; system used: Kv7.2 (Homo sapiens) 6510

Write EC50 of O=C(NCc1ccnc(-n2cccn2)c1)N[C@@H]1CCOc2ccccc21 ; system used: Kv7.2 (Homo sapiens) 2420

Write EC50 of O=C(NCc1ccnc(-n2cnc(C(F)(F)F)c2)c1)N[C@H]1C[C@@H]2CC[C@H]1C2 (racemic) ; system used: Kv7.2 (Homo sapiens) 380

Write EC50 of O=C(NC(CCO)c1ccnc(OC(F)F)c1)N[C@H]1C[C@H](C(F)(F)F)C1 (stereo partly shown) ; system used: Kv7.2 (Homo sapiens) 1900

* * *

Consider the following compounds; for each one, report its EC50.
# assayedTarget: Kv7.2 (Homo sapiens, UniProt O43526)
# method: Activation of Kv7.2 (in vitro assay, concentration response curve)
# conditionNotes: activation of Kv7.2

Write down EC50 measured for item O=C(NCc1ccnc(-c2cnco2)c1)N[C@H]1C[C@@H]2CC[C@H]1C2 (racemic) 8280 nM

Write down EC50 measured for item CC1CC(C)(C)CCC1NC(=O)NCc1ccnc(C#N)c1 (stereo not drawn) 3690 nM

Write down EC50 measured for item O=C(NCc1ccnc(OC(F)F)c1)NCC1(C(F)(F)F)CC1 600 nM

Write down EC50 measured for item O=C(NCc1ccnc(OC(F)F)c1)N[C@H]1C[C@@H](C(F)F)C1 2410 nM

Write down EC50 measured for item O=C(NCc1ccnc(OC(F)F)c1)NC[C@H]1C[C@@H](C(F)(F)F)C1 850 nM

Write down EC50 measured for item O=C(NCc1ccnc(OCC(F)(F)F)c1)NC12CCC(F)(CC1)CC2 310 nM

Write down EC50 measured for item O=C(NCc1ccnc(-n2cccn2)c1)NC12CC(C(F)(F)F)(C1)C2 1140 nM

Write down EC50 measured for item O=C(NC(CO)c1ccnc(OCC(F)(F)F)c1)N[C@H]1C[C@H](C(F)(F)F)C1 (stereo partly drawn) 380 nM

Write down EC50 measured for item C[C@H]1C[C@H](NC(=O)NCc2ccnc(OC(F)F)c2)C1 240 nM

* * *

Consider the following compounds; for each one, report its Emax.
# assayedTarget: Kv7.2 (Homo sapiens, UniProt O43526)
# Construct: expressed in transfected cells
# method: Activation of Kv7.2 (in vitro assay, concentration response curve)
# Type: cell-based
# conditionNotes: Kv7.2 activation max %
Just the number in %, nothing appended.

Write down Emax measured for item O=C(NCc1ccnc(OC(F)F)c1)NC1COc2ccccc2C1 (centres unmarked) [Example 192] 51

Write down Emax measured for item O=C(NC(CO)c1ccnc(OCC(F)(F)F)c1)N[C@H]1C[C@H](C(F)(F)F)C1 (some centres unmarked) [Example 185] 84

Write down Emax measured for item O=C(NCc1ccnc(OC(F)F)c1)NCC1(C(F)F)CCC1 [Example 191] 68

Write down Emax measured for item Cc1cccc(NC(=O)NCc2ccnc(OC(F)F)c2)c1 [Example 126] 50

Write down Emax measured for item O=C(NCc1ccnc(OC(F)F)c1)N[C@@H]1C[C@H]2CC[C@@H]1O2 (racemic) [Example 102] 71

Write down Emax measured for item O=C(NCc1ccnc(OCC(F)(F)F)c1)NCC(O)C12CC(C1)C2 (centres unmarked) [Example 292] 62

Write down Emax measured for item O=C(NCc1ccnc(OC(F)F)c1)N[C@H]1C[C@@H](C(F)F)C1 [Example 137] 48

Write down Emax measured for item O=C(NCc1ccnc(OC(F)F)c1)NC12CC(C(F)(F)F)(C1)C2 [Example 178] 62

Write down Emax measured for item O=C(NCc1ccnc(OC(F)F)c1)NC1C[C@H]2C[C@@H]1CC2(F)F (mixture of isomers) [Example 165] 94

Write down Emax measured for item O=C(NCc1ccnc(OC(F)F)c1)N[C@@H](C1CC1)C(F)(F)F [Example 135] 68

Write down Emax measured for item C[C@H](F)COc1cc(CNC(=O)N[C@H]2C[C@H](C(F)(F)F)C2)ccn1 [Example 202] 57

Write down Emax measured for item O=C(NCc1ccnc(-n2cccn2)c1)N[C@@H]1CCOc2ccccc21 [Example 1] 54

Write down Emax measured for item O=C(NCc1cc(OC(F)F)ncn1)N[C@H]1C[C@H](C(F)(F)F)C1 [Example 282] 78

Write down Emax measured for item O=C(NCc1ccnc(-n2cccn2)c1)Nc1cccc(Cl)c1 [Example 4] 60

Write down Emax measured for item O=C(NCc1ccnc(OC(F)F)c1)NC1CCC(F)(F)C1 (centres unmarked) [Example 93] 56

Write down Emax measured for item O=C(NCc1ccnc(OC(F)F)c1)NCC(O)C12CC(F)(C1)C2 (centres unmarked) [Example 289] 40

Write down Emax measured for item O=C(NCc1ccnc(CC(F)(F)F)c1)N[C@H]1C[C@H](C(F)(F)F)C1 [Example 64] 70

Write down Emax measured for item O=C(NCc1ccnc(OC(F)F)c1)NCC1(F)CCCC1 [Example 227] 49

Write down Emax measured for item O=C(NCc1ccnc(OCC(F)CF)c1)N[C@H]1CC[C@@H](C(F)(F)F)C1 (mixture of isomers) [Example 225] 52

Write down Emax measured for item CC12CC(NC(=O)NCc3ccnc(OC(F)F)c3)(C1)C2 [Example 182] 63

Write down Emax measured for item CC(Oc1cc(CNC(=O)NC23CC(F)(C2)C3)ccn1)C(F)(F)F (centres unmarked) [Example 223] 66

Write down Emax measured for item O=C(Nc1cccc(Cl)c1F)NC(CO)c1ccnc(OC(F)F)c1 (centres unmarked) [Example 270] 65

Write down Emax measured for item O=C(NCc1ccnc(OC(F)F)c1)N[C@@H]1C[C@H]2CCC[C@H]2C1 [Example 190] 85

Write down Emax measured for item O=C(NCc1ccnc(OC(F)F)c1)NC[C@H]1C[C@@H](C(F)(F)F)C1 [Example 87] 40

Write down Emax measured for item O=C(NCc1ccnc(OCC(F)(F)F)c1)N[C@H]1C[C@@H](F)C1 [Example 269] 46

Write down Emax measured for item COc1cc(CNC(=O)NC23CCC(F)(CC2)CC3)ccn1 [Example 129] 53

Write down Emax measured for item CC1CCCC(C)C1NC(=O)NCc1ccnc(OC(F)F)c1 (centres unmarked) [Example 25] 75

Write down Emax measured for item O=C(NCc1ccnc(OC(F)F)c1)N[C@H]1C[C@@H](OC(F)F)C1 [Example 265] 47

Write down Emax measured for item O=C(NCc1ccnc(OCC(F)(F)F)c1)N[C@@H]1C[C@@H]2[C@H](C1)C2(F)F [Example 238] 79

Write down Emax measured for item COc1cc(CNC(=O)N[C@@H]2C[C@H]3CC[C@@H]2C3)ccn1 (racemic) [Example 14] 86

Write down Emax measured for item O=C(NCc1cnnc(OCC(F)(F)F)c1)N[C@H]1C[C@H](C(F)(F)F)C1 [Example 215] 40

Write down Emax measured for item O=C(NCc1ccnc(OCC2CC2)c1)N[C@H]1C[C@H](C(F)(F)F)C1 [Example 55] 51

Write down Emax measured for item O=C(NCc1ccnc(OC(F)F)c1)NC1CC2C(C1)C2(F)F (racemic) [Example 74] 58

Write down Emax measured for item O=C(NCc1ccnc(OC(F)F)c1)N[C@@H]1C[C@@H]2[C@H](C1)C2(F)F [Example 169] 69

Write down Emax measured for item O=C(NCc1ccnc(OCC(F)(F)F)c1)NCC1(F)CCC1 [Example 210] 48
